# Relative activity (%) compared with CNTO7160, KU812-NF-κB reporter per record follows
tested on: T1, ST2 on KU812 cells (UniProt Q01638 19-556, limits assumed)
T1 sequence (looked up): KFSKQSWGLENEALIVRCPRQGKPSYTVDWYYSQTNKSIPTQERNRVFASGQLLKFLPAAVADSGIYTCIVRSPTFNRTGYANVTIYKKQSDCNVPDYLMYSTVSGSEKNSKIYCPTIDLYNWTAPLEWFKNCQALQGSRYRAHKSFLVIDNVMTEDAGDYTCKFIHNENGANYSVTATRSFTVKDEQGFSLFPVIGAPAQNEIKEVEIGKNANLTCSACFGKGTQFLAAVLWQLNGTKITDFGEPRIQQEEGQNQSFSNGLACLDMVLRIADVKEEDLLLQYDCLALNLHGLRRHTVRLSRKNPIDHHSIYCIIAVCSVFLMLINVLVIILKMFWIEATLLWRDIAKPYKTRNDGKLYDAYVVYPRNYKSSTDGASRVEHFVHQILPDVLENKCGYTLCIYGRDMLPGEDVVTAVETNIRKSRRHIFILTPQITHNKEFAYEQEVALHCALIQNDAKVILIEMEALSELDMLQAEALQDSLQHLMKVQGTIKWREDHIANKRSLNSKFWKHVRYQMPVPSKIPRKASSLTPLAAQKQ
test: cell-based or functional assay
Expressed in %, but write only the number.

Some solved cases for reference:
[
  {
    "binder": "5888-153H1+L2 (antibody, V domains shown, murine antibody) VH: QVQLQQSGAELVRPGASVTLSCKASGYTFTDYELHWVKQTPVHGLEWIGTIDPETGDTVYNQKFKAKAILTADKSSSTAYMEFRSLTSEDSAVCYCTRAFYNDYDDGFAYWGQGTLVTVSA VL: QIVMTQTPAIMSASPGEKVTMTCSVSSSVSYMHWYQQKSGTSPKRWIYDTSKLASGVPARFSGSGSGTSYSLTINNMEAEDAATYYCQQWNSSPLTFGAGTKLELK",
    "unit string": "%",
    "observed": 506
  },
  {
    "binder": "5887-41H+L (antibody, V domains shown, murine antibody) VH: DVQLQQSGPGLVKPSQSLSLTCTVTGYSITSDYAWDWIRQFPGNKLEWMGYIRYSGDTYYNPSLKSRISITRDTSKNQFFLQLNSVTTEDTATYYCATTMMDTMDYWGQGTSVTVSS VL: DIVLTQSPASLTVSLGQRATISCRASKSVSTSGNSYMHWYQQKPGQPPKLLIYLASNLESGVPARFSGSGSGTDFTLNIHPVEEEDAATYYCQHSREFPLTFGAGTKLELK",
    "unit string": "%",
    "observed": 41.9
  }
]

Looking up 5886-156H+L (antibody, V domains shown, murine antibody) VH: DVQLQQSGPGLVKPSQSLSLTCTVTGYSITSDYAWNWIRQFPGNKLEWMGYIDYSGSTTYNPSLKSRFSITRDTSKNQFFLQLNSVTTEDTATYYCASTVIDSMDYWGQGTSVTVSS VL: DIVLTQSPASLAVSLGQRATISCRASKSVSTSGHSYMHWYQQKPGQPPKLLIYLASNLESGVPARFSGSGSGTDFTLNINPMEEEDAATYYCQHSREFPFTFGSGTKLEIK , I see its Relative activity (%) compared with CNTO7160, KU812-NF-κB reporter listed as 127
